Source listed as patent EP1388586A2.

Reported pIC50 values follow for various substances
- tested_on: DRB1*0301 (DR3w17) (Homo sapiens, UniProt P01903+P01911, A100K/A102G/A103R/A169T/F55Y/I96L/K41T/L162R/M171V/P40S/Q125H/Q178H/Q39Y/R42S/S66N/T106N/T262R/W38E/Y61H)
- Construct: used as sources of human HLA class II molecules; endogenous in cells; host or cells: MAT (EBV-transformed homozygous B cell line)
- Sequence (P01903 26-254, other chains not shown): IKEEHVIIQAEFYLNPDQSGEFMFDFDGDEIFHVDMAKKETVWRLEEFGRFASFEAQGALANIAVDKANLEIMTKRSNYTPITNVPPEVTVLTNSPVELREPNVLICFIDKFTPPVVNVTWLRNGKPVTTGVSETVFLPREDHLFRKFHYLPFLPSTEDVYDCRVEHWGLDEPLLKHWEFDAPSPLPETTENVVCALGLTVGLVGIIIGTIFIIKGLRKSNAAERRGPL
- assay_protocol: Class II peptide-binding assay, DR3 (pH 4.5);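 further: unlabeled peptide competing with a radiolabeled probe peptide for binding to affinity-purified HLA-DR3, IC50 regarded as an approximation of Kd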
- stated_conditions: read-out: DR3 nM (In IC50 Format); purified HLA DR3
pIC50: −log10 of the molar value. Ends that are not written are not given here.
reported_metric: pIC50

{"substance": "TSATQRLANSLVHSSNNFG [Peptide 735.02]", "reported_metric": "pIC50", "obs_value": 4.48}
{"substance": "YAAYVKLTAARKFA-NH2 [Peptide 806.03]", "reported_metric": "pIC50", "obs_value": 4.64}
{"substance": "YASFVSQTAQRLFY-NH2 [Peptide 717.03]", "reported_metric": "pIC50", "obs_value": 4.80}
{"substance": "LSGSHLVEALYLVSGERGFF [Peptide 734.02]", "reported_metric": "pIC50", "obs_value": 4.52}
{"substance": "LVEALYLVSGERGFFYTPKT [Peptide 734.03]", "reported_metric": "pIC50", "obs_value": 5.80}
{"substance": "YAEFQAEKTLKAAS-NH2 [Peptide 717.05]", "reported_metric": "pIC50", "obs_value": 5.40}
{"substance": "LVHSSNNFGAILSSTNVGS [Peptide 735.04]", "reported_metric": "pIC50", "obs_value": 4.80}
{"substance": "NPVVHFFKNIVTPRTPPPS [Peptide 765.09]", "reported_metric": "pIC50", "obs_value": 4.30}
{"substance": "RLANSLVHSSNNFGAILSS [Peptide 735.03]", "reported_metric": "pIC50", "obs_value": 4.60}
{"substance": "LLVIVELIPSTSS [Peptide 778.00]", "reported_metric": "pIC50", "obs_value": 4.22}
